- Test Details: NCI Yeast Anticancer Drug Screen. Data for the rad50 strain (AID 155)
- Condition Notes: S. cerevisiae rad50 strain growth inhibition; at 5.0 µM (retest, dose inferred, filed as 0.5)
- Experimental: Growth inhibition of yeast strains with defined genetic alterations is measured as a screen for potential anti-cancer activity. Selected strains with alterations in DNA damage repair or cell cycle control were exposed to compounds and growth inhibition was measured relative to vehicle treated controls. The strain used in this assay is rad50
About 79,000 compounds went through this panel and 15% of them were active in at least one assay; those are over-represented in the sample as a whole. Calls of active or inactive are those of the source. No stated cut-off is given here; in the data, active means growth inhibition above about 70%; inactive means the rest.
Choose the fitting class; nothing outside TRUE (active), FALSE (inactive) is accepted.

Examples from the recorded data:
| Compound | Class |
| --- | --- |
| CCC12C=CCN3CCC4(c5cc(C(c6ccccn6)c6cc7ccccc7n6C)c(OC)cc5N(C)C4C(O)(C(=O)OC)C1OC(C)=O)C32 (stereo not given) | FALSE |
| Cc1[nH]c2ccccc2c1C(C)CC(O)c1ccccc1 (stereo not given) | FALSE |
| O=[N+]([O-])C(=C(Nc1ccccc1)Nc1ccccc1)C(Cl)=C(Cl)Cl | TRUE |

Input: Can you look up the reported call for NCCOB1c2ccccc2Cc2ccccc21 for me?
Output: FALSE

Input: Can you look up the reported call for CC(=O)Oc1c(C)cc(C)cc1Cc1cc(C(C)=O)cc(Cc2cc(C)cc(C)c2OC(C)=O)c1OC(C)=O for me?
Output: FALSE
